Documented % Positive across a set of binders
# Target of assay: T1, human GPRC5D (human, UniProt Q9NZD1 1-345)
# T1 construct: whole, on cells; also called hGPRC5D; G-protein coupled receptor family C group 5 member D
# T1 sequence (Q9NZD1 whole entry): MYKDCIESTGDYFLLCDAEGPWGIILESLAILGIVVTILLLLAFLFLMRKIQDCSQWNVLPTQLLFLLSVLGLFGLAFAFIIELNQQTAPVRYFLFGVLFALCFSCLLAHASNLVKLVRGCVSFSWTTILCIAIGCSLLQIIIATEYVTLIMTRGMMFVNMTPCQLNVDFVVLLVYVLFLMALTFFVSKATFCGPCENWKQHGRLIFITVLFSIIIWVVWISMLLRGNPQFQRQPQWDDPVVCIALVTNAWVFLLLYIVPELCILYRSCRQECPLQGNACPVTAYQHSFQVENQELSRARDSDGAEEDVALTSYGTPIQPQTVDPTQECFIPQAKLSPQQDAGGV
# Assay remarks: FACS, HEK293T-hGPRC5D cells
State the answer as a number, implicitly in %.

Some solved cases for reference:
28H9C12 (antibody, V domains shown, Mouse monoclonal antibody from hybridoma subclone; also called 281H9C12) VH: EVQLVESGGGLVKPGGSLKLSCAASGFTFSDYGMHWVRQAPEKGLEWVAYISSGSSTIYYADTVKGRFTISRDNAKNTLFLQMTSLRSEDTAIYYCVRRPWYFDVWGTGTTVTVSS VL: DVLMTQTPLSLPVSLGDQASISCRSSQSIVHSNGNTYLQWYLQKPGQSPKLLIYKVSNRFSGVPDRFSGSGSGTDFTLKISRLEAEDLGVYYCFQGSHVPFTFGSGTKLEIK    99.6
98A3A8 (antibody, V domains shown, Mouse monoclonal antibody from hybridoma subclone) VH: EVQLQQSGPELVKPGASVKMSCKASGYTFTYYVTHWVRQKPGQGLEWIGYINPYNDGTMFNEKFKGKATLTSDKSSSTAYMEFSSLTSEDSAVFYCARGGVRRYFDVWGAGTTVTVSS VL: DIQMTQSPSSLSASLGERVSLTCRASQDIGSNLNWLQQKPDGTIKRLIYATSSLDSGVPKRFSGSRSGSDYSLTINSLESEDFVDYYCLQYASFPYTFGGGTKLEIK    93.2
89F11E3 (antibody, V domains shown, Mouse monoclonal antibody from hybridoma subclone) VH: QVQLQQSGAELARPGASVKMSCKASGYTFTSSTIHWVKQRPGQGLAWIGYIVPSTGYTNYNQKFKDKATLTADKSSSTAYMQLTSLTSEDSAVYYCARSDGYPFGYSMAYWGQGTSVTVSS VL: DIQMNQSPSSLSASLGDTITITCHASQNINVWLSWYHQKPGNIPKLLIYKASNLHTGVPSRFSGSGSGTGFTLTISRLQPEDIATYYCQQGQSYPFTFGSGTKLEIK    96.7
83A9B8 (antibody, V domains shown, Mouse monoclonal antibody from hybridoma subclone) VH: EVQLQQSGPELVKPGASVKMSCKASGYTFSNYVIHWVKQKPGQGLEWIGYFNPYNDGSKYNEKFKGKATLTSDKSSSTAYMELSSLTSEDSAVYYCARGGVRRYFDVWGAGTTVTVSS VL: DIQMTQSPSSLSASLGERVSLTCRASQDIGDNLNWLQQEPDGTIKRLIYATFSLDSGVPKRFSGSRSGSVYSLTISRLESEDFVDYFCLHYASFPYTFGGGTKLEIK    94.1
110B4H5 (antibody, V domains shown, Mouse monoclonal antibody from hybridoma subclone) VH: EVQLQQSGPELVKPGASVKMSCKASGYTFTFYIMHWVKQKPGQGPEWIGYINPYNDGTKYNAKFKGKATLSSDRSSSTAYMELSSLTSEDSAVYYCARGGVRRYFDVWGAGTPVTVSS VL: DIQMTQSPSSLSASLGERVSLTCRSSQDIGSNLNWLQQEPDGTIKRLIYATFSLDSGVPKRFSGSRSGSHYSLTISSLESEDFVVYYCLQYGSFPYTFGGGTKLEIK    98.7
90G6H3 (antibody, V domains shown, Mouse monoclonal antibody from hybridoma subclone) VH: QAYLQQSGAELVRSGASVKMSCKASGYTFTSYIMHWVKQTPGQGLEWIGYIYPGNGGTNYNQKFKDKATLSADTSSSTAYMQINSLTSEDSAVYFCARWGLRQGFAYWGQGTLVSVSA VL: DIVMTQSQKFMSTSVGDRVSVTCKASQNVGGNVAWYQQKPGQSPKALIYSTSYRNSGVPDRFTGSGSGTDFTLTISNVQSEDLAEYFCQQYNSYPFTFGSGTKLEIR    96.7
82A1C10 (antibody, V domains shown, Mouse monoclonal antibody from hybridoma subclone) VH: QVQLKESGPGLVAPSQSLSITCTVSGFSLTNYAVTWVRQPPGKGLEWLGVIWGDGSTYYHSALVSRLSITKDNSRTQVLLKLNSLQTDDTARYYCAKGGYSPFAYWGQGTLVTVSA VL: DVVMTQTPLSLPVSLGDQASISCRSSQSLVHSNGNTYLHWYLQKPGQSPKLLIFKVSNRFSGVPDRFSGSGSGTDFTLKISRVEAEDLGVYFCSQNTHVPFTFGSGTKLEIK    99.4
116F1G6 (antibody, V domains shown, Mouse monoclonal antibody from hybridoma subclone) VH: EVQLQHSGPELVKPGASVKMSCKASGYTFTTYVMHWVKQKPGQGLEWIGYINPYNDGTKYNEKFKGKATLTSDKSSSTAYMELSSLTSEDSAVYYCARGGVRRYFDVWGAGTTVTVSS VL: DIQMTQSPSSLSASLGERVSLTCRASQDIGSNLNWLQQEPNGTIKRLIYATFTLDSGVPKRFSGSRSGSDYSLTISSLESEDFVDYYCLQYASFPYTFGGGTKLEIK    96.2

(Q) Would you mind telling me what % Positive value was observed for 108C4C12 (antibody, V domains shown, Mouse monoclonal antibody from hybridoma subclone) VH: EVQLQQSGPELVKPGASVKMSCKASGYTFTSYVIHWVKQKTGQGLEWIGYFNPYNDGTKYNEEFKGKATLTSDKSSNTAYMELNSLTSDDSAVYFCARGGVRRYFDVWGAGTTVTVSS VL: DIQMTQSPSSLSASLGERVSLTCRASQDIGSNLNWLQQEPDGTIKRLIYATFGLDSGVPKRFSGSRSGSDYSLTISSLESEDFVDYYCQQYASFPYTFGGGTKLEIK ?
(A) 96.6

(Q) For the binder shown here, 15D6G2 (antibody, V domains shown, Mouse monoclonal antibody from hybridoma subclone) VH: EVQLVESGGDLVKPGGYLRLSCAASGFTFSSHGMSWVRQTPDKRLEWVATISSGGRNTYYPDSVKGRFTISRDNAKNILYLQMSSLKSEDTAMFYCTRHSGDAMDYWGQGTSVTVSS VL: DILLTQSPAILSVSPGERVSFSCRASQSIGTNIHWYQQRTNGSPRLLIKYASESISGIPSRFSGSGSGTDFTLSINSVESEDIADYYCQQSKSWPTFGGGTKLEIK , give the reported % Positive.
(A) 99.5
